# TEST TARGET: RmlA (glucose-1-phosphate thymidylyltransferase, gene 1774) (Pectobacterium actinidiae, UniProt A0ABW8GFN0)
# Construct: intact rmlA cloned from GX1 genomic DNA into pET32a; fusion protein; E. coli ArcticExpress (DE3); FITC-labelled
# ASSAY COMMENT: microscale thermophoresis, FITC-labelled RmlA
# CONDITION DETAILS: read-out: binding affinity; 50 mM Tris-HCl, 1 mM MgCl2, 0.05% Tween 20, pH 8.0; ligand as disodium salt
compounds and their reported Kd
READOUT NAME: Kd (µM)

>>> experimental_value("Cc1cn([C@H]2C[C@H](O)[C@@H](COP(=O)(O)OP(=O)(O)OP(=O)(O)O)O2)c(=O)[nH]c1=O")
199
>>> experimental_value("O=P(O)(O)O[C@H]1O[C@H](CO)[C@@H](O)[C@H](O)[C@H]1O")
73.3
